- assay-system: SARS-CoV-2 S on pseudovirions (Wuhan Hu-1 / IL1/2020, last 18 amino acids removed) (SARS-CoV-2, UniProt P0DTC2 14-1273)
- measurement-protocol: cell-based or functional assay
outcome-measure: Mean IC80, pSV neutralization

>  <binder>
COV_3031 (antibody, V domains shown) VH: EVQLVESGGGLVQPGRSLRLSCTTSGFNFGDNSMSWVRQAPGKGLEWVGFISNKAYGGTTEYAASVKGRFTISRDDSTSIAYLQMNSLKTEDTAIYYCIRDSYGHFPDYGFDIWGQGTMVTVSS VL: DVVLTQTPLFLSVTPGQPASISCKSSRSLIHSDGKTYFYWFLQKPGQPPQLLIYEASNRFSGVPDRFSGSGSGTDFTLKISRVEAEDVGVYYCMHSIQLPRTFGQGTKVEIT

>  <outcome-measure>
Mean IC80, pSV neutralization

>  <value-measured>
≥ 25 µg/ml

$$$$
>  <binder>
COV_1050 (antibody, V domains shown, human IgG1) VH: QVQLVESGGGVVQPGRSLRLSCAASRFTFSSYAMHWVRQAPGKGLEWVAVISFDGSNKYYADSVKGRFTIFRDNSKNTLSLQMNSLRTEDTAMYYCASPAGYYESLWGQGTLVTVSS VL: SYELTQPPSVSVSPGQTARVTCSGDALSKQYGFWYQQKPGQAPTLVIYKDTERPSGIPERFSGSGSGTTVTLTISGVQAEDEADYYCQSTDNSGRWVFGGGTKLTVLG

>  <outcome-measure>
Mean IC80, pSV neutralization

>  <value-measured>
≥ 25 µg/ml

$$$$
